Values compiled from patent US9670227B2.

Please respond with reported IC50 for every item in the list.
System: H929 multiple myeloma tumour line
Assay: In vitro cytotoxicity, Microculture Tetrazolium Assay
Format: cell-based
Conditions: Homo sapiens, NCI-H929, 48 h, H929 cells, 48 hours exposure, MTT; read-out: IC50 (μM) MTT H929
Give just the numeric value; µM need not be written.

Endpoint output: IC50 of COCCOc1cccc(-c2sc3ncnc(OC(Cc4ccccc4OC)C(=O)O)c3c2-c2ccc(OCCN3CCN(C)CC3)c(Cl)c2C)c1 (stereo not shown) [Example 589] . Value?
0.233

Endpoint output: IC50 of CC#Cc1sc2ncnc(OC(Cc3ccccc3OCc3ccnn3C(C)(C)C)C(=O)O)c2c1-c1ccc(OCCN2CCN(C)CC2)c(Cl)c1C (stereo not shown) [Example 488] . Value?
0.014

Endpoint output: IC50 of C#Cc1cccc(-c2sc3ncnc(OC(Cc4ccccc4OC)C(=O)O)c3c2-c2ccc(OCCN3CCN(C)CC3)c(Cl)c2C)c1 (stereo not shown) [Example 547] . Value?
0.475

Endpoint output: IC50 of Cc1c(-c2c(-c3ccc(F)o3)sc3ncnc(OC(Cc4ccccc4OCc4ccnc(C(F)(F)F)n4)C(=O)O)c23)ccc(OCCN2CCN(C)CC2)c1Cl (stereo not shown) [Example 169] . Value?
0.009

Endpoint output: IC50 of Cc1c(-c2c(-c3ccc(F)cc3)sc3ncnc(OC(Cc4ccccc4OCc4ccnc(-c5cccs5)c4)C(=O)O)c23)ccc(OCCN2CCN(C)CC2)c1Cl (stereo not shown) [Example 18] . Value?
0.076

Endpoint output: IC50 of COc1ccccc1CC(Oc1ncnc2sc(-c3cccc(N(C)C)c3)c(-c3ccc(OCCN4CCN(C)CC4)c(Cl)c3C)c12)C(=O)O (stereo not shown) [Example 552] . Value?
0.784

Endpoint output: IC50 of CCCn1nccc1COc1ccccc1CC(Oc1ncnc2sc(-c3ccc(F)cc3)c(-c3ccc(OCCN4CCN(C)CC4)c(Cl)c3C)c12)C(=O)O (stereo not shown) [Example 81] . Value?
0.034

Endpoint output: IC50 of CCc1sc2ncnc(OC(Cc3ccccc3)C(=O)O)c2c1-c1ccc(OCCCN(C)C)c(Cl)c1C (stereo not shown) [Example 400] . Value?
14.4

Endpoint output: IC50 of COc1ccccc1-c1nccc(COc2ccccc2CC(Oc2ncnc3sc(-c4ccc(OCc5ccccc5C)cc4)c(-c4ccc(OCCN5CCN(C)CC5)c(Cl)c4C)c23)C(=O)O)n1 (stereo not shown) [Example 767] . Value?
0.05

Endpoint output: IC50 of CC#Cc1sc2ncnc(OC(Cc3ccccc3OC)C(=O)O)c2c1-c1ccc(OCCN2CCNCC2)c(Cl)c1C (stereo not shown) [Example 684] . Value?
2.23
